Can you tell me GI50 for the items I'm about to list?
System: H929 human cancer cell lines
method summary: Cellular viability / proliferation (Cell TiterGlo, 72 h)
Type: cell-based
run parameters: Homo sapiens, NCI-H929, 72 h, read-out: GI50 on cellular proliferation of H929 human cancer cell lines, H929 cells, 72 h, Cell TiterGlo, 10% FBS
One number for each entry, in nM.

Answered examples (2):
Req: Could you tell me which GI50 is on file for Cc1cc(OCCCc2c3n(c4c(-c5c(C)n[nH]c5C)c(Cl)ccc24)[C@H](C)CN(c2cn(C)c4cc(C(=O)O)ccc24)C3=O)cc(C)c1Cl ?
Resp: 710

Req: Could you tell me which GI50 is on file for Cc1cc(OCCCc2c3n(c4c(-c5c(C)nn(C)c5C)c(Cl)ccc24)[C@H](C)CN(c2cccc4cc(C(N)=O)n(Cc5ccccn5)c24)C3=O)cc(C)c1Cl ?
Resp: 510

---
Req: Could you tell me which GI50 is on file for Cc1cc(OCCCc2c3n(c4c(-c5c(C)nn(C)c5C)c(Cl)ccc24)[C@H](C)CN(c2cn(Cc4ccncc4)c4ccc(C(=O)O)cc24)C3=O)cc(C)c1Cl ?
Resp: 1300

###

study target: Mcl-1 (Homo sapiens (Human), UniProt Q07820)
Sequence (Q07820 172-327): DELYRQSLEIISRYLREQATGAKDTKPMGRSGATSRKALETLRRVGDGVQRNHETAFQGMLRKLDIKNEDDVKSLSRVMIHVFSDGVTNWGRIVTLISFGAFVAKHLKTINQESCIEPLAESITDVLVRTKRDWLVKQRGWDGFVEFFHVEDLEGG
method summary: TR-FRET binding assay, FITC-Bak peptide and MBP-tagged Mcl-1
run parameters: read-out: Ki for Inhibition of Mcl-1 by TR-FRET assay
test readout: Ki

Answered examples (3):
Req: Could you tell me which Ki is on file for COC1CCN(Cc2cc(N3C[C@@H](C)n4c(c(CCCOc5cc(C)c(Cl)c(C)c5)c5ccc(Cl)c(-c6c(C)nn(C)c6C)c54)C3=O)c3c(c2)cc(C(=O)O)n3C)CC1 ?
Resp: < 0.2 nM

Req: Could you tell me which Ki is on file for Cc1cc(OCCCc2c3n(c4c(-c5c(C)nn(C)c5C)c(Cl)ccc24)[C@H](C)CN(c2cc(OCC4CC4)cc4cc(C(=O)O)n(C)c24)C3=O)cc(C)c1Cl ?
Resp: 0.35 nM

Req: Could you tell me which Ki is on file for Cc1cc(OCCCc2c3n(c4c(-c5c(C)nn(C)c5C)c(Cl)ccc24)[C@H](C)CN(c2cc(C(=O)N4CCOCC4)cc4cc(C(=O)O)n(C)c24)C3=O)cc(C)c1Cl ?
Resp: < 0.2 nM

Field: Ki. Fill in for each record below.
1. Cc1cc(OCCCc2c3n(c4c(-c5c(C)nn(C)c5C)c(Cl)ccc24)[C@H](C)CN(c2cc(N(C)C(=O)CN4CCN(C)CC4)cc4c(C(=O)O)cn(C)c24)C3=O)cc(C)c1Cl
2. Cc1cc(N2C[C@@H](C)n3c(c(CCCOc4cc(C)c(Cl)c(C)c4)c4ccc(Cl)c(-c5c(C)nn(C)c5C)c43)C2=O)c2ncc(C(=O)O)cc2c1
3. COCCn1cc(N2C[C@@H](C)n3c(c(CCCOc4cc(C)c(Cl)c(C)c4)c4ccc(Cl)c(-c5c(C)nc(CN6CCN(C)CC6)nc5C)c43)C2=O)c2cc(C(=O)O)ccc21
4. Cc1nn(C)c(C)c1-c1c(Cl)ccc2c(CCCOc3cccc4ccccc34)c3n(c12)[C@H](C)CN(c1cn(C)c2ccc(C(=O)O)cc12)C3=O
5. COCCOc1ccc(N2C[C@@H](C)n3c(c(CCCOc4cc(C)c(Cl)c(C)c4)c4ccc(Cl)c(-c5c(C)nn(C)c5C)c43)C2=O)c2c1cc(C(=O)O)n2Cc1cc(C)ccn1
6. Cc1cc(OCCCc2c3n(c4c(-c5c(C)nn(C)c5C)c(Cl)ccc24)[C@H](C)CN(c2cc(C(=O)N4CCN(C)CC4)cc4cc(C(=O)O)n(C)c24)C3=O)cc(C)c1Cl

Resp:
["0.73 nM", "< 0.2 nM", "< 0.2 nM", "0.39 nM", "< 0.2 nM", "< 0.2 nM"]

Field: Ki. Fill in for each record below.
1. Cc1cc(OCCCc2c3n(c4c(-c5c(C)nn(C)c5C)c(Cl)ccc24)[C@H](C)CN(c2cn(CC(N)=O)c4ccc(C(=O)O)cc24)C3=O)cc(C)c1Cl
2. COCCn1c(C(=O)O)cc2cc(C)cc(N3C[C@@H](C)n4c(c(CCCOc5cc(C)c(Cl)c(C)c5)c5ccc(Cl)c(-c6c(C)ncnc6C)c54)C3=O)c21

Resp:
< 0.2 nM
< 0.2 nM

###

study target: Mcl-1 (Homo sapiens (Human))
method summary: TR-FRET binding assay, FITC-Bak peptide and MBP-tagged Mcl-1
run parameters: read-out: Ki for Inhibition of Mcl-1 by TR-FRET assay
Can you tell me Ki for the items I'm about to list?

Field: Ki. Fill in for each record below.
1. COCCOCCn1c(C(=O)O)cc2cc(C)cc(N3C[C@@H](C)n4c(c(CCCOc5cc(C)c(Cl)c(C)c5)c5ccc(Cl)c(-c6c(C)nn(C)c6C)c54)C3=O)c21
2. Cc1cc(OCCCc2c3n(c4c(-c5c(C)nn(C)c5C)c(Cl)ccc24)[C@H](C)CN(c2cn(CC4CCN(C)C4)c4ccc(C(=O)O)cc24)C3=O)cc(C)c1Cl (stereo partly drawn)
3. Cc1cc(OCCCc2c3n(c4c(-c5c(C)nn(C)c5C)c(Cl)ccc24)[C@H](C)CN(c2cn(C)c4ccc(-n5cncn5)cc24)C3=O)cc(C)c1Cl

Resp:
1: 0.22 nM; 2: < 0.2 nM; 3: 5.5 nM

###

Tested on: H929 human cancer cell lines
method summary: Cellular viability / proliferation (Cell TiterGlo, 72 h)
Format: cell-based
run parameters: Homo sapiens, NCI-H929, 72 h, read-out: GI50 on cellular proliferation of H929 human cancer cell lines, H929 cells, 72 h, Cell TiterGlo, 10% FBS
test readout: GI50 (nM)
Give bare numbers, in nM.

Answered examples (4):
Req: Could you tell me which GI50 is on file for Cc1ccnc(Cn2cc(C(=O)O)c3cccc(N4C[C@@H](C)n5c(c(CCCOc6cc(C)c(Cl)c(C)c6)c6ccc(Cl)c(-c7c(C)nn(C)c7C)c65)C4=O)c32)c1 ?
Resp: 250

Req: Could you tell me which GI50 is on file for Cc1cc(OCCCc2c3n(c4c(-c5c(C)nn(C)c5C)c(Cl)ccc24)[C@H](C)CN(c2cn(CC(=O)N4CCCC4)c4ccc(-c5ncn(C)n5)cc24)C3=O)cc(C)c1Cl ?
Resp: 260

Req: Could you tell me which GI50 is on file for COc1ccc(N2C[C@@H](C)n3c(c(CCCOc4cc(C)c(Cl)c(C)c4)c4ccc(Cl)c(-c5c(C)nc(CN(C)C)nc5C)c43)C2=O)c2c1cc(C(=O)O)n2Cc1ccccn1 ?
Resp: 340

Req: Could you tell me which GI50 is on file for Cc1cc(OCCCc2c3n(c4c(-c5c(C)ncnc5C)c(Cl)ccc24)CCCN(c2cccc4c(C(=O)O)cccc24)C3=O)cc(C)c1Cl ?
Resp: 2100

---
Req: Could you tell me which GI50 is on file for Cc1cc(OCCCc2c3n(c4c(-c5c(C)nn(C)c5C)c(Cl)ccc24)[C@H](C)[C@@H](C)N(c2ccc(C(=O)O)cc2)C3=O)cc(C)c1Cl ?
Resp: 7400

###

Can you tell me log10(GI50) for the items I'm about to list?
System: H929 human cancer cell lines
method summary: Cellular viability / proliferation (Cell TiterGlo, 72 h)
Format: cell-based
run parameters: Homo sapiens, NCI-H929, 72 h, read-out: GI50 on cellular proliferation of H929 human cancer cell lines, H929 cells, 72 h, Cell TiterGlo, 10% FBS
Log10 applied to GI50; unit prior to transform: nM.

Answered examples (4):
Req: Could you tell me which log10(GI50) is on file for Cc1cccnc1Cn1c(C(=O)O)cc2cccc(N3C[C@@H](C)n4c(c(CCCOc5cc(C)c(Cl)c(C)c5)c5ccc(Cl)c(-c6c(C)nn(C)c6C)c54)C3=O)c21 ?
Resp: 3.56

Req: Could you tell me which log10(GI50) is on file for Cc1cc(OCCCc2c3n(c4c(-c5c(C)nn(C)c5C)c(Cl)ccc24)[C@H](C)CN(c2cn(C)c4ccc(-c5noc(=O)[nH]5)cc24)C3=O)cc(C)c1Cl ?
Resp: 2.36

Req: Could you tell me which log10(GI50) is on file for Cc1cc(N2C[C@@H](C)n3c(c(CCCOc4cc(C)c(Cl)c(C)c4)c4ccc(Cl)c(-c5c(C)nc(CN6CCN(C)CC6)nc5C)c43)C2=O)c2c(c1)cc(C(=O)O)n2C ?
Resp: 2.40

Req: Could you tell me which log10(GI50) is on file for Cc1cc(OCCCc2c3n(c4c(-c5c(C)n[nH]c5C)c(Cl)ccc24)[C@H](C)CN(c2cn(C)c4c(C)cc(C(=O)O)cc24)C3=O)cc(C)c1Cl ?
Resp: 2.84

Field: log10(GI50). Fill in for each record below.
1. Cc1cc(OCCCc2c3n(c4c(-c5c(C)nn(C)c5C)c(Cl)ccc24)[C@H](C)[C@@H](C)N(c2cccc(C(=O)O)c2)C3=O)cc(C)c1Cl
2. Cc1cc(OCCCc2c3n(c4c(-c5c(C)nn(CC(=O)O)c5C)c(Cl)ccc24)CCCN(c2cccc4cccnc24)C3=O)cc(C)c1Cl
3. CC(=O)Nc1ccc2c(c1)c(N1C[C@@H](C)n3c(c(CCCOc4cc(C)c(Cl)c(C)c4)c4ccc(Cl)c(-c5c(C)nn(C)c5C)c43)C1=O)cn2C

Resp:
3.98
3.81
2.67

Field: log10(GI50). Fill in for each record below.
1. Cc1cc(OCCCc2c3n(c4c(-c5c(C)nn(C)c5C)c(Cl)ccc24)[C@H](C)CN(c2cn(C)c4ccc(-c5nnc(C6CC6)o5)cc24)C3=O)cc(C)c1Cl
2. COc1ccc(N2C[C@@H](C)n3c(c(CCCOc4cc(C)c(Cl)c(C)c4)c4ccc(Cl)c(-c5c(C)ncnc5C)c43)C2=O)c2c1cc(C(=O)O)n2Cc1ccc(C)cn1
3. Cc1cc(OCCCc2c3n(c4c(-c5c(C)nn(C)c5C)c(Cl)ccc24)[C@H](C)CN(c2cn(C)c4ccc(-c5ncn(CC6CC6)n5)cc24)C3=O)cc(C)c1Cl
4. Cc1cc(OCCCc2c3n(c4c(-c5c(C)nn(C)c5C)c(Cl)ccc24)[C@H](C)CN(c2cn(CCN4CCCC4)c4ccc(C(=O)O)cc24)C3=O)cc(C)c1Cl
5. Cc1cc(OCCCc2c3n(c4c(-c5c(C)ncnc5C)c(Cl)ccc24)[C@H](C)CN(c2cccc4c(C(=O)O)cn(C)c24)C3=O)cc(C)c1Cl
6. Cc1cc(OCCCc2c3n(c4c(-c5c(C)ncnc5C)c(Cl)ccc24)[C@H](C)CN(c2ccc(C(=O)O)c4cccnc24)C3=O)cc(C)c1Cl
7. Cc1cc(OCCCc2c3n(c4c(-c5c(C)nn(C)c5C)c(Cl)ccc24)[C@H](C)CN(c2cn(C)c4ccc(C(=O)NCc5cccnc5)cc24)C3=O)cc(C)c1Cl
8. Cc1cc(OCCCc2c3n(c4c(-c5c(C)nn(C)c5C)c(Cl)ccc24)[C@H](C)CN(c2cccc4cc(C(=O)O)n(CC5CCCO5)c24)C3=O)cc(C)c1Cl (stereo partly drawn)

Resp:
1. 3.23
2. 2.75
3. 3.00
4. 2.48
5. 3.00
6. 3.40
7. 3.20
8. 2.77

Field: log10(GI50). Fill in for each record below.
1. Cc1cccc(Cn2c(C(=O)O)cc3cc(OCCN(C)C)cc(N4C[C@@H](C)n5c(c(CCCOc6cc(C)c(Cl)c(C)c6)c6ccc(Cl)c(-c7c(C)ncnc7C)c65)C4=O)c32)n1
2. Cc1cc(OCCCc2c3n(c4c(-c5c(C)ncnc5C)c(Cl)ccc24)CCCN(c2ccc(C(=O)O)c4ncccc24)C3=O)cc(C)c1Cl
3. COCCn1cc(N2C[C@@H](C)n3c(c(CCCOc4cc(C)c(Cl)c(C)c4)c4ccc(Cl)c(-c5c(C)nn(C)c5C)c43)C2=O)c2cc(-c3ncn(CC4COC4)n3)ccc21

Resp:
1. 2.61
2. 3.63
3. 2.40
